- assay.target: Proteinase-activated receptor 2 (Homo sapiens)
- Sequence (P55085 whole entry): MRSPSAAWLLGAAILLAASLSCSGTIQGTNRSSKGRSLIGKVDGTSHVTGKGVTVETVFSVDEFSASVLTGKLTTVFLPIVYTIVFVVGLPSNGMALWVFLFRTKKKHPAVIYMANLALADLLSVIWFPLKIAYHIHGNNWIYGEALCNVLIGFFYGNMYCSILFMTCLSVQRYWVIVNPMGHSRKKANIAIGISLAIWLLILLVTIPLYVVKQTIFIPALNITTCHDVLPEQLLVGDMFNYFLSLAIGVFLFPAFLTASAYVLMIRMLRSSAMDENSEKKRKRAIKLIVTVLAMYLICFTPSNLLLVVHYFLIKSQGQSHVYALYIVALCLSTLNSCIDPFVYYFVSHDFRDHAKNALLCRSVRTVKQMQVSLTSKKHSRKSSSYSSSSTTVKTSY
- experimental.details: Antagonist activity at human PAR2
pIC50: −log10 of the molar value.

>  <smiles.entry>
C[C@@H](C1CCCCC1)n1c(-c2cc3c(cc2Br)OCO3)nc2cc(C(=O)Nc3ccc(C#N)cc3)ccc21

>  <assay.target>
Proteinase-activated receptor 2 (Homo sapiens)

>  <pIC50>
> 8.60

$$$$

----------
- assay.target: Proteinase-activated receptor 1 (Homo sapiens, UniProt P25116)
- Sequence (P25116 whole entry): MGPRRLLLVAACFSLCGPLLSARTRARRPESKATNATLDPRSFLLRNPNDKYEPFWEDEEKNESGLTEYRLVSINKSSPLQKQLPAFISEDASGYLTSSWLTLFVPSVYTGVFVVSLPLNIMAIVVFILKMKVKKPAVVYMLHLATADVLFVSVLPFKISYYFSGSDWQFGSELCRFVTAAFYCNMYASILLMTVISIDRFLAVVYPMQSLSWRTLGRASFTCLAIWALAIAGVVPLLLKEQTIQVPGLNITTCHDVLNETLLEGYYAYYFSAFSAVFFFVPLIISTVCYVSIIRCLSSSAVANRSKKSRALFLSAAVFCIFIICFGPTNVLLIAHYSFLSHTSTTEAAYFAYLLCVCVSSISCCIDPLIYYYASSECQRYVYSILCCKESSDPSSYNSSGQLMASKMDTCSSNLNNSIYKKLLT
- experimental.details: Antagonist activity at human PAR1

>  <smiles.entry>
C[C@@H](C1CCCCC1)n1c(-c2cc3c(cc2Br)OCO3)nc2cc(C(=O)Nc3ccc(C#N)cc3)ccc21

>  <IC50>
> 50 µM

$$$$
